# credit: patent US20200339692A1

Below, each entry is listed alongside its reported Kd.
# system-under-test: T1, monkey PD-L1 (Cat. #90251-C08H, Sino Biological) (monkey (cyno), UniProt G7PSE7 19-239)
# T1 construct: Bought recombinant protein used in the Biacore test; also called Monkey (cyno) PD-L1; Cyno PDL1
# T1 sequence (G7PSE7 entry or part of it C08H C08H): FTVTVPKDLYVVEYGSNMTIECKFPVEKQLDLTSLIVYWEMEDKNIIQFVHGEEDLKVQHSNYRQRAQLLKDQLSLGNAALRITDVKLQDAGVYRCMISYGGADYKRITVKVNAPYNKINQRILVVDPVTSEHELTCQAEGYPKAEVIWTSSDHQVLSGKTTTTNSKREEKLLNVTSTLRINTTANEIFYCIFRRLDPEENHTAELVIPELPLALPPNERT
# test-description: SPR, Biacore X100, 1:1 Langmuir

binder	Kd (nM)
H5L11 (antibody, human IgG1, kappa, V domains shown, from the HRP00049 mutant library; also called 9-2 H5 and 9-2 L11) VH: QVQLQESGPGLVKPSQTLSLTCTVSGGSISDGSAYWSWIRQHPGKGLEYIGFISRAGSTYNTPSLKGRVTISRDTSKNQFSLKLSSVTAADTAVYYCARSGGWLAPFDYWGRGTLVTVSS VL: DIVMTQSPDSLAVSLGERATINCKSSQSLFYHSNQKHSLAWYQQKPGQPPKLLIYGASTRESGVPDRFSGSGSGTDFTLTISSLQAEDVAVYYCQQYYGYPYTFGGGTKVEIKR	0.211
H18L61 (antibody, human IgG1, kappa, V domains shown, also called 24D5 H18 and 24D5 L61) VH: QVQLVQSGAEVKKPGASVKVSCKASGYTFTSYWMHWVRQAPGQGLEWMGRISPSSGMAVYNEKFKNRVTMTRDTSTSTVYMELSSLRSEDTAVYYCARGGSSYDYFDYWGQGTTVTVSS VL: DIVLTQSPASLAVSPGQRATITCRASESVSIHGTHLMHWYQQKPGQPPKLLIYAASNLESGVPARFSGSGSGTDFTLTINPVEAEDTANYYCQQSFEDPLTFGQGTKLEIKR	0.048
H6L11 (antibody, human IgG1, kappa, V domains shown, also called 9-2 H6 and 9-2 L11) VH: QVQLQESGPGLVKPSQTLSLTCTVSGGSISNDYWTWIRQHPGKGLEYIGFISRAGSTYNTPSLKGRVTISRDTSKNQFSLKLSSVTAADTAVYYCARSGGWLAPFDYWGRGTLVTVSS VL: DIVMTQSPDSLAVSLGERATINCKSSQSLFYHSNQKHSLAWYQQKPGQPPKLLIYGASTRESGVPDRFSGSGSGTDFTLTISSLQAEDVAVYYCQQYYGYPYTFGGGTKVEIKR	0.318
H12L64 (antibody, human IgG1, kappa, V domains shown, from the HRP00052 mutant library; also called 24D5 H12 and 24D5 L64) VH: QVQLVQSGAEVKKPGASVKVSCKASGYTFTSYWMHWVRQAPGQGLEWMGRITPSSGFAMYNEKFKNRVTMTRDTSTSTVYMELSSLRSEDTAVYYCARGGSSYDYFDYWGQGTTVTVSS VL: DIVLTQSPASLAVSPGQRATITCRASESVSIHGTHLMHWYQQKPGQPPKLLIYVASYAASGVPARFSGSGSGTDFTLTINPVEAEDTANYYCQQSFEDPLTFGQGTKLEIKR	0.0458
